Target: Indoleamine 2,3-dioxygenase 1 (Homo sapiens)
Sequence (P14902 whole entry): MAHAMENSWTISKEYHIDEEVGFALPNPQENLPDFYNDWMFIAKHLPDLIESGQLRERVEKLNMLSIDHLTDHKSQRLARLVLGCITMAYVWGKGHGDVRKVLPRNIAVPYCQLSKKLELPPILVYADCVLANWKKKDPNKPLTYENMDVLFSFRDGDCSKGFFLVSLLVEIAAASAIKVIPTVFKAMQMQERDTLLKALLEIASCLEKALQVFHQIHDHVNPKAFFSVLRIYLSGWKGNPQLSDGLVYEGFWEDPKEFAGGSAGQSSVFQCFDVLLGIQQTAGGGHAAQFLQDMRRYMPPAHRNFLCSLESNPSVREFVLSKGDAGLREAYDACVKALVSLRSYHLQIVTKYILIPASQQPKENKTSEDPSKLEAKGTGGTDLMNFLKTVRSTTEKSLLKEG
Assay: Inhibition of recombinant human IDO1 assessed as reduction in conversion of L-tryptophan to kynurenine by methylene blue dye based spectrometric method
measured-metric: IC50 (nM)

[[record]]
molecule = "O=C(NCCC1C(=O)Nc2ccccc21)OCc1ccccc1 (stereo not drawn)"
target_or_system = "Indoleamine 2,3-dioxygenase 1 (Homo sapiens)"
measured_metric = "IC50"
experimental_value = 2310


1. CC(=O)/C=C1\C(=O)Nc2ccc(Cl)cc21
2. O=C1Nc2ccccc2/C1=N\c1ccc(Cl)cc1
Just tell me: smaller IC50 value, 1 or 2 ? Record your answer as the label of the chosen record.
1
(1: 360 nM, 2: 2560 nM)
